Ref: ChEMBL document CHEMBL3991601

Target: Rho-associated protein kinase 2 (Homo sapiens, UniProt O75116); note: in the data inactive means no Kd found up to 30 µM
Sequence (O75116 whole entry): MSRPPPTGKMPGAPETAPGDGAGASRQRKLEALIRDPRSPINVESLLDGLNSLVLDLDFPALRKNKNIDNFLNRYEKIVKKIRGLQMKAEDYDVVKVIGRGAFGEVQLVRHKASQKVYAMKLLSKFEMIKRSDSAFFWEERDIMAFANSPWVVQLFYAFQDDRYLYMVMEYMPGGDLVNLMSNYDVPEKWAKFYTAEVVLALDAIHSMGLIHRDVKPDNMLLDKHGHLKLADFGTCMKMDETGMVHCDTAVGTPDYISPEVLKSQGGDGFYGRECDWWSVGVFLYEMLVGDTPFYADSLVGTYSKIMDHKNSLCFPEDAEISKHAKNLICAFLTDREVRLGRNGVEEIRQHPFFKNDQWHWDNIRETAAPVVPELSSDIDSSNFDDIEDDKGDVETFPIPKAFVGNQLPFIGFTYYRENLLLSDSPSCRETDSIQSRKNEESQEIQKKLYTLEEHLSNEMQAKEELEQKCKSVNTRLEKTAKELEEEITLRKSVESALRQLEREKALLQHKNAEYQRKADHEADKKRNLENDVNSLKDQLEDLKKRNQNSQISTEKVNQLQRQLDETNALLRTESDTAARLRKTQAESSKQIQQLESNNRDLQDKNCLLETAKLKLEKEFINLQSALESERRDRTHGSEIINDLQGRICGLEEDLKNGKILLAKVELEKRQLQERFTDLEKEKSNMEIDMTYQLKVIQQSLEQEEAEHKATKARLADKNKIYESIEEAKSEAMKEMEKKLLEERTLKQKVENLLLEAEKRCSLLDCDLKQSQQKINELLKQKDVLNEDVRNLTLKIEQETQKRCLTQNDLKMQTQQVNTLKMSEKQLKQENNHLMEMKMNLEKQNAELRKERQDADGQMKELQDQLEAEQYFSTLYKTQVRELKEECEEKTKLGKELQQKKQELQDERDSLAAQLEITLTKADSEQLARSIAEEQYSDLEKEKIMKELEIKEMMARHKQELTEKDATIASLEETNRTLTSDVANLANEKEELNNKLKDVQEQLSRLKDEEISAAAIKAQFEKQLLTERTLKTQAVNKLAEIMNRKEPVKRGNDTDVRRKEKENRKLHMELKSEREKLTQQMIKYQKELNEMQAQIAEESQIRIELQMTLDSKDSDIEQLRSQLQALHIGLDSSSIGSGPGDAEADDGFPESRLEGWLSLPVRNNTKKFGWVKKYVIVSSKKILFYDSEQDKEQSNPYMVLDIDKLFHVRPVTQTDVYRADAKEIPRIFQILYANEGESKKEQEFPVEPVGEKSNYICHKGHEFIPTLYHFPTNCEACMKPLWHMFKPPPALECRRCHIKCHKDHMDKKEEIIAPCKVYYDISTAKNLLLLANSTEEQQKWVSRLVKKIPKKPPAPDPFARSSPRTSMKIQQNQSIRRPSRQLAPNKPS
The source made the active and inactive calls.
For each of the molecules below, state its Kd.

Recorded Kd, per entry:
Smiles: O=C(NC[C@H](O)CO)c1ccncc1Nc1ccc(I)cc1F
Kd: > 30 µM (inactive)

Smiles: Cc1ccc(C(=O)Nc2ccc(Oc3cc4cnn(C)c4cc3-c3cn[nH]c3)c(F)c2)c(=O)n1-c1ccc(F)cc1
Kd: > 30 µM (inactive)

Smiles: O[C@H]1CC[C@H](Nc2ncc3nc(Nc4c(F)cc(F)cc4F)n([C@H]4CCOC4)c3n2)CC1
Kd: > 30 µM (inactive)

Which Kd is reported for this molecule? `COc1cc2ncnc(Nc3ccc(O)cc3)c2cc1OC`
> 30 µM (inactive)

###

The source made the active and inactive calls.
Let's go through some Kd measurements on UniProt:Q15418 together.
Sequence (Q15418 whole entry): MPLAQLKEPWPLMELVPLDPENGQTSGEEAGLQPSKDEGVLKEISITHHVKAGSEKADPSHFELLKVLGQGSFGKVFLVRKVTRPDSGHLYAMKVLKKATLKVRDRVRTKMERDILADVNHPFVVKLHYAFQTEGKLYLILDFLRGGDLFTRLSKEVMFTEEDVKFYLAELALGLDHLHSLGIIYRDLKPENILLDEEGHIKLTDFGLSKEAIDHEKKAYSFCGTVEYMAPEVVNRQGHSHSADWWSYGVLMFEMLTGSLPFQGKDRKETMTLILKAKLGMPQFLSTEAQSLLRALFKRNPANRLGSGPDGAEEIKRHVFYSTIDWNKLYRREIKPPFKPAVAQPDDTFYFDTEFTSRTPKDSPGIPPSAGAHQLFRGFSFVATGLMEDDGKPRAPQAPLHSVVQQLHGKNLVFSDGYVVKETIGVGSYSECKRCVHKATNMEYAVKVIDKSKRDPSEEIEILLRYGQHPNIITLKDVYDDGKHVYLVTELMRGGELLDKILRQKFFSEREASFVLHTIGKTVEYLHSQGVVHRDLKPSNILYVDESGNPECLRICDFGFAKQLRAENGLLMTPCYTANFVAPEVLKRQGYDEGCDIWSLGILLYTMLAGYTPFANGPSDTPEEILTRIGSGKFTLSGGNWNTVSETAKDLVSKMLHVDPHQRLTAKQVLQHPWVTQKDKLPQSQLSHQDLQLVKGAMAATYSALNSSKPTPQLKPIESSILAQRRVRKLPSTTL

Recorded Kd, per entry:
Smiles: Cc1c(Cn2c(C)nc3c(C(=O)O)cc(N4CCOCC4)cc32)cccc1C(F)(F)F
Kd: > 30 µM (inactive)
--
Smiles: CNC(=O)c1ccc(Nc2ncc(C(F)(F)F)c(NCc3nccnc3N(C)S(C)(=O)=O)n2)cc1
Kd: > 30 µM (inactive)
--
Smiles: FC(F)(F)c1ccc(CNc2ccc(Cc3c[nH]c4ncc(Cl)cc34)cn2)cn1
Kd: > 30 µM (inactive)

Dear colleague, could you please provide Kd for the compounds listed below?
1. Cn1c(=O)n(-c2ccc(C(C)(C)C#N)cc2)c2c3cc(-c4cnc5ccccc5c4)ccc3ncc21
2. COc1ccc2c(OCc3nnc4ccc(-c5ccccc5)nn34)ccnc2c1
3. c1cc(OCCN2CCCCC2)cc(-c2n[nH]c3ccc(-c4nc[nH]n4)cc23)c1
4. CCc1cc2c(cc1N1CCC(N3CCOCC3)CC1)C(C)(C)c1[nH]c3cc(C#N)ccc3c1C2=O
5. C=CC(=O)Nc1cccc(Nc2nc(Nc3ccc(N4CCN(C(C)=O)CC4)cc3OC)ncc2C(F)(F)F)c1
6. COc1cc2ncnc3c2cc1OCCCCCN(C)Cc1ccc(Br)cc1N3
7. Cc1ccc(C(=O)Nc2ccc(Oc3cc4cnn(C)c4cc3-c3cn[nH]c3)c(F)c2)c(=O)n1-c1ccc(F)cc1

> 30 µM (inactive)
> 30 µM (inactive)
> 30 µM (inactive)
> 30 µM (inactive)
> 30 µM (inactive)
> 30 µM (inactive)
> 30 µM (inactive)

Dear colleague, could you please provide Kd for the compounds listed below?
1. S=C(NCc1ccc2c(c1)OCO2)N1CCN(c2ncnc3c2oc2ccccc23)CC1
2. COc1cc2ncnc(Nc3ccc(O)cc3)c2cc1OC
3. COc1cccc2cc(-c3nc([C@H]4CC[C@H](C(=O)O)CC4)n4ncnc(N)c34)[nH]c12
4. CN1CCN(c2nc(C3=C(c4c[nH]c5ccccc45)C(=O)NC3=O)c3ccccc3n2)CC1
5. O=S(=O)(c1cccc2cnccc12)N1CCCNCC1
6. COc1cccc(Nc2ncnn3ccc(CN4CC[C@@H](N)[C@H](O)C4)c23)c1
7. C[C@]1(O)C[C@@H](c2nc(-c3ccc4ccc(-c5ccccc5)nc4c3)c3c(N)nccn32)C1

> 30 µM (inactive)
> 30 µM (inactive)
> 30 µM (inactive)
> 30 µM (inactive)
> 30 µM (inactive)
> 30 µM (inactive)
> 30 µM (inactive)

###

Calls of active or inactive are those of the source.
Let's go through some Kd measurements on ATP-dependent RNA helicase DDX3X (Homo sapiens, UniProt O00571) together.
Sequence (O00571 whole entry): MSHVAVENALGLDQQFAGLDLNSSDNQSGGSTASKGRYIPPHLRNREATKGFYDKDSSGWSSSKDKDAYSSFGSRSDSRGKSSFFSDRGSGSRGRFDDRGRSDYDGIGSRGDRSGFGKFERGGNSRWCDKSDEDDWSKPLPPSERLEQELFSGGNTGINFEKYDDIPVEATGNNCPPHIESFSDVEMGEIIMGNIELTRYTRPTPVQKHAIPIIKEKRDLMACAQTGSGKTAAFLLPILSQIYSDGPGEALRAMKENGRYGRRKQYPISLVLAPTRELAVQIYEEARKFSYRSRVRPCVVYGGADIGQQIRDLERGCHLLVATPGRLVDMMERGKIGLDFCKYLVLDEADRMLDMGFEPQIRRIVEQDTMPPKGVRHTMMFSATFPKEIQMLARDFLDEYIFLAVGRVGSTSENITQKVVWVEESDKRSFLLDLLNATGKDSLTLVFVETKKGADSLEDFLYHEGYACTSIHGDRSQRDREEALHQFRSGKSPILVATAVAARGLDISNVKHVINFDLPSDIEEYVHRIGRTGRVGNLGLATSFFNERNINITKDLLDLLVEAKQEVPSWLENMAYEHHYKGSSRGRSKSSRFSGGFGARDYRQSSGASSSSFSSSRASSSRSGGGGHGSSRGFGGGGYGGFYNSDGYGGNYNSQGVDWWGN

Recorded Kd, per entry:
Smiles: C[C@@]1(C(=O)Nc2ccc(F)nc2)CCCN1c1nc(Nc2cc(C3CC3)n[nH]2)c2cccn2n1
Parameter Measured: Kd
Measured Value: > 30 µM (inactive)

Smiles: O=C(Nc1ccc(OC(F)(F)F)cc1)c1sccc1NCc1ccnc2ccccc12
Parameter Measured: Kd
Measured Value: > 30 µM (inactive)

Dear colleague, could you please provide Kd for the compounds listed below?
1. COc1cc(Nc2ncc(F)c(Nc3ccc4c(n3)N(COP(=O)(O)O)C(=O)C(C)(C)O4)n2)cc(OC)c1OC
2. NC(=O)c1ccc(N(C(N)=O)c2c(F)cccc2F)nc1-c1ccc(F)cc1F

["> 30 µM (inactive)", "> 30 µM (inactive)"]

###

Biological target: Tyrosine-protein kinase Mer (Homo sapiens, UniProt Q12866); note: in the data inactive means no Kd found up to 30 µM
Sequence (Q12866 whole entry): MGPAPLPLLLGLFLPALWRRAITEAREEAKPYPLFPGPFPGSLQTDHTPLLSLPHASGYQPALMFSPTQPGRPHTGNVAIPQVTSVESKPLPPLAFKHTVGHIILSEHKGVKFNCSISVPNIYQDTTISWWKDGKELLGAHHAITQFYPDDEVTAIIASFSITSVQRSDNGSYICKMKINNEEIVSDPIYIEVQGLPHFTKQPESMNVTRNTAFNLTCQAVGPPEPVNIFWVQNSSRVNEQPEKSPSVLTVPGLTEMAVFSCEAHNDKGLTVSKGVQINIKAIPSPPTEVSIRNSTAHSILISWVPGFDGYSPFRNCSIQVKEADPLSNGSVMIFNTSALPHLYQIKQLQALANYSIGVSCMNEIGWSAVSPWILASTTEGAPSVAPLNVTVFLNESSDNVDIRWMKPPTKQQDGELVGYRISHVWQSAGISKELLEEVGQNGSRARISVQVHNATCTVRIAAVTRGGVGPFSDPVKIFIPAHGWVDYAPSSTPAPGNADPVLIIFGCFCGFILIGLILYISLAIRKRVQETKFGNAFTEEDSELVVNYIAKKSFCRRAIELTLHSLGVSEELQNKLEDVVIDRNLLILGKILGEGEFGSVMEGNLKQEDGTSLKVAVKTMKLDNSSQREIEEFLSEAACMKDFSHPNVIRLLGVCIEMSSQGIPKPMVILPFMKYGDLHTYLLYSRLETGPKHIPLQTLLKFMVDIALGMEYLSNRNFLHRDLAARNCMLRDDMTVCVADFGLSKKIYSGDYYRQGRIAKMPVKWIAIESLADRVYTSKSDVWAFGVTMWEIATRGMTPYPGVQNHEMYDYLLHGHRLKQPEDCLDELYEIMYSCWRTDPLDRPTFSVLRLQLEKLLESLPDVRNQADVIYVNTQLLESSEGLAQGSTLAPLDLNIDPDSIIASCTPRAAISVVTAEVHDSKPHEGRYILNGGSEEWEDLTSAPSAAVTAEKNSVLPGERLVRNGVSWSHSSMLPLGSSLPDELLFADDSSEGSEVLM
Activity calls are given as the source filed them.
For each of the compounds below, state its Kd.

Recorded Kd, per entry:
Compound: S=C(NCc1ccc2c(c1)OCO2)N1CCN(c2ncnc3c2oc2ccccc23)CC1 [AMUVATINIB]
Target Under Test: Tyrosine-protein kinase Mer (Homo sapiens, UniProt Q12866); note: in the data inactive means no Kd found up to 30 µM
Kd: > 30 µM (inactive)

Compound: C[C@@H]1COC(Nc2ccc3ncnc(Nc4ccc(OCc5nccs5)c(Cl)c4)c3c2)=N1 [VARLITINIB]
Target Under Test: Tyrosine-protein kinase Mer (Homo sapiens, UniProt Q12866); note: in the data inactive means no Kd found up to 30 µM
Kd: > 30 µM (inactive)

Compound: Cn1cc(-c2[nH]c3cc(NC(=O)[C@H](N)C4CCCCC4)cc4c3c2C=NNC4=O)cn1
Target Under Test: Tyrosine-protein kinase Mer (Homo sapiens, UniProt Q12866); note: in the data inactive means no Kd found up to 30 µM
Kd: 0.018 µM

Compound: O=S(=O)(c1cccc2c(O)nccc12)N1CCCNCC1 [HYDROXYFASUDIL]
Target Under Test: Tyrosine-protein kinase Mer (Homo sapiens, UniProt Q12866); note: in the data inactive means no Kd found up to 30 µM
Kd: > 30 µM (inactive)

Which Kd is reported for this compound? CCN(CCCOc1ccc2c(Nc3cc(CC(=O)Nc4cccc(F)c4)n[nH]3)ncnc2c1)CCOP(=O)(O)O [BARASERTIB]
> 30 µM (inactive)

###

Molecular target: Ephrin type-A receptor 4 (Homo sapiens); note: in the data inactive means no Kd found up to 30 µM
Sequence (P54764 whole entry): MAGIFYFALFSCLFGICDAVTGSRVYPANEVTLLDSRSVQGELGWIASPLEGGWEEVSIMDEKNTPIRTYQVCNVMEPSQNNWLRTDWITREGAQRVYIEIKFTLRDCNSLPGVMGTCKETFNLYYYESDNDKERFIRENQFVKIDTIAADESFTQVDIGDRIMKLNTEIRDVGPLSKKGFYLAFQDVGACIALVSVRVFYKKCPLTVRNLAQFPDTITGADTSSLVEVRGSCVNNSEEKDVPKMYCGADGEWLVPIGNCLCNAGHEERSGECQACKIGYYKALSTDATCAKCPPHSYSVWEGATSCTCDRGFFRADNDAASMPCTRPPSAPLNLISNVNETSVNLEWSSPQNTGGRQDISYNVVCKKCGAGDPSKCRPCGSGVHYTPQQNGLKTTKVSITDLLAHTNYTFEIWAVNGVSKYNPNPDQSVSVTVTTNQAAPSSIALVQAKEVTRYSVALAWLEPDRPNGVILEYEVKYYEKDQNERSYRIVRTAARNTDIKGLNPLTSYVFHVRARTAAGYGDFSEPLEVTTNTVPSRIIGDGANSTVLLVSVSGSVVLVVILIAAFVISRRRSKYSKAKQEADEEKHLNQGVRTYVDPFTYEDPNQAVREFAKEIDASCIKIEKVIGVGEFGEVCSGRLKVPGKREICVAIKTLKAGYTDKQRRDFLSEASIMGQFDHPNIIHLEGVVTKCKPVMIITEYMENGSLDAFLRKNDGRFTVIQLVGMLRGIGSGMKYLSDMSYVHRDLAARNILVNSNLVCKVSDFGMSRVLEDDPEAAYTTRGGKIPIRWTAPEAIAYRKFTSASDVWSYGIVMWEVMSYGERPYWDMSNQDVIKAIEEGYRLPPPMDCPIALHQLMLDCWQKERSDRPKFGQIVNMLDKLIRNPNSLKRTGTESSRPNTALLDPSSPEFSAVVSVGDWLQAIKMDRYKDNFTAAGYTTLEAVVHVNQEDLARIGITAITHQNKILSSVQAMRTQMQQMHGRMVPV
Calls of active or inactive are those of the source.
Parameter Measured: Kd

Smiles: CC(C)(O)CC(=O)NCCn1ccc2ncnc(Nc3ccc(Oc4cccc(C(F)(F)F)c4)c(Cl)c3)c21
Kd: > 30 µM (inactive)

Smiles: Cc1cc(C(=O)Nc2cc(Oc3ccc4nc(NC(=O)C5CC5)cn4n3)ccc2C)n(C)n1
Kd: > 30 µM (inactive)

Smiles: CCN(CCCOc1ccc2c(Nc3cc(CC(=O)Nc4cccc(F)c4)n[nH]3)ncnc2c1)CCOP(=O)(O)O
Kd: > 30 µM (inactive)

Smiles: COc1cc(Nc2ncc(F)c(Nc3ccc4c(n3)N(COP(=O)(O)O)C(=O)C(C)(C)O4)n2)cc(OC)c1OC
Kd: > 30 µM (inactive)

Smiles: COc1cc2ncnc3c2cc1OCCCCCN(C)Cc1ccc(Br)cc1N3
Kd: > 30 µM (inactive)

Smiles: CCc1nc(C(N)=O)c(Nc2ccc(N3CCC(N4CCN(C)CC4)CC3)c(OC)c2)nc1NC1CCOCC1
Kd: > 30 µM (inactive)

Dear colleague, could you please provide Kd for the compounds listed below?
1. C=CC(=O)Nc1cc(Nc2nccc(-c3cn(C)c4ccccc34)n2)c(OC)cc1N(C)CCN(C)C
2. Cn1cc(-c2[nH]c3cc(NC(=O)[C@H](N)C4CCCCC4)cc4c3c2C=NNC4=O)cn1

1: > 30 µM (inactive); 2: > 30 µM (inactive)
